- ASSAY_METHOD_TEXT: pKa of nanoparticle compositions
- Assay type: physicochemical
- RECORDED_CONDITIONS: Table 1b
MEASURED_METRIC: pKa

>>> recorded_result("CCCCCCCCCN(CCCOC(=O)CCCCC)CCCC1CCN(C(=O)CCN(CCCCCCCCC)CCN(CCCCCCCCC)CCCCCCCCC)CC1 [Compound 87]")
6.79
>>> recorded_result("CCCCCCCCCN(CCCCCC(=O)OCCC)CCC1CCN(C(=O)CN(CCCCCCCCC)CCN(CCCCCCCCC)CCCCCCCCC)CC1 [Compound 59]")
6.68
>>> recorded_result("CCCCCCCCCN(CCCCCCCC(=O)OC)CCC1CCN(C(=O)CN(CCCCCCCCC)CCN(CCCCCCCCC)CCCCCCCCC)CC1 [Compound 57]")
6.73

---

- ASSAY_METHOD_TEXT: Lipid clearance: % dose remaining in liver of CD-1 mice
- Type: in vivo
- RECORDED_CONDITIONS: intravenous, 0.5 mg/kg, CD-1 mouse, Table 8a
MEASURED_METRIC: % Dose Remaining 24 hr (%)

Worked set:
>>> recorded_result("CCCCCCCCCCCC(=O)N1CCN(C(=O)CN(CCCCCCCCC)CCN(CCCCCCCCC)CCCCCCCCC)CC1")
38.63
>>> recorded_result("CCCCCCCCCN(CCCOC(=O)CCCCC)CCCC1CCN(C(=O)CCN(CCCCCCCCC)CCN(CCCCCCCCC)CCCCCCCCC)CC1")
0.05

a = CCCCCCCCCCCCCCN(CCCCCC(=O)OCCCCCCC)CCC1CCN(C(=O)CN(CCCCCCCCC)CCN(CCCCCCCCC)CCCCCCCCC)CC1
b = CCCCCCCCCN(CCCCCCCCC)CCN(CCCCCCCCC)CC(=O)N1CCC(CCOC(=O)CN(CCCCCCCCC)CCCCCCCCC)CC1
Request: Pick the one with the larger % Dose Remaining 24 hr: a vs b Give the label under which the chosen entry appears.
Result: b
(b: 38.43%, a: 18.52%)

P = CCCCCCCCCCCCCCN(CCCOC(=O)CCCCCCCCC)CC(=O)N1CCN(C(=O)CN(CCCCCCCCC)CCN(CCCCCCCCC)CCCCCCCCC)CC1
Q = CCCCCCCCCCCCCCN(CCCCCCCCCCCC(=O)OC)CCC1CCN(C(=O)CN(CCCCCCCCC)CCN(CCCCCCCCC)CCCCCCCCC)C1 (stereo not drawn)
Request: # min-compare on % Dose Remaining 24 hr between P and Q Give the label under which the chosen entry appears.
Result: P
(P: 0.05%, Q: 0.86%)

---

- ASSAY_METHOD_TEXT: Particle size and polydispersity index of nanoparticle compositions (Zetasizer Nano ZS)
- Assay type: physicochemical
- RECORDED_CONDITIONS: Table 1c; nanoparticle compositions
MEASURED_METRIC: PDI

>>> recorded_result("CCCCCCCCCN(CCCCCCCCC)CCN(CCCCCCCCC)CC(=O)N1CCN(C(=O)CCCC(=O)OCCCCCCC)CC1")
0.19
>>> recorded_result("CCCCCCCCCCCCCCN(CCCOC(=O)CCCCCCCCC)CCC1CCCN(C(=O)CN(CCCCCCCCC)CCN(CCCCCCCCC)CCCCCCCCC)C1 (stereo not drawn)")
0.23
>>> recorded_result("CCCCCCCCCN(CCCCCCCCC)CC(=O)N1CCN(C(=O)CN(CCCCCCCCC)CCCCCCCCC)CC1")
0.22
>>> recorded_result("CCCCCCCCCCCCCCN(CCCCCC(=O)OCCCCCCC)CCC1CCCN(C(=O)CN(CCCCCCCCC)CCN(CCCCCCCCC)CCCCCCCCC)C1 (stereo not drawn)")
0.22
>>> recorded_result("CCCCCCCCCCCCCCN(CCCCCC(=O)OCCCCCCC)CCC1CCN(C(=O)CN(CCCCCCCCC)CCN(CCCCCCCCC)CCCCCCCCC)CC1")
0.20
>>> recorded_result("CCCCC/C=C\\CCN(CC/C=C\\CCCCC)CCN(CC/C=C\\CCCCC)CC(=O)N1CCN(C(=O)CN(CCCCCCCCC)CCCCCCCC(=O)OC)CC1")
0.23

---

- ASSAY_METHOD_TEXT: Lipid clearance: % dose remaining in liver of CD-1 mice
- Format: in vivo
- RECORDED_CONDITIONS: intravenous, 0.5 mg/kg, CD-1 mouse, Table 8a
MEASURED_METRIC: % Dose Remaining 24 hr (%)

>>> recorded_result("CCCCCCCCCN(CCCCCCCCC)CCN(CCCCCCCCC)CC(=O)N(C)CCN(C)C(=O)CN(CCCCCCCCC)CCCC(=O)OCCCCC")
34.01
>>> recorded_result("CCCCCCCCCN(CCCOC(=O)CCCCC)CCC(=O)N1CCN(C(=O)CCN(CCCCCCCCC)CCN(CCCCCCCCC)CCCCCCCCC)CC1")
0.12

1 = CCCCCCCCCCCCCCN(CCCOC(=O)CCCCCCCCC)CCC1CCN(C(=O)CN(CCCCCCCCC)CCN(CCCCCCCCC)CCCCCCCCC)CC1
2 = CC/C=C\COC(=O)CCCN(CCCCCCCCC)CC(=O)N1CCN(C(=O)CN(CCCCCCCCC)CCN(CCCCCCCCC)CCCCCCCCC)CC1
3 = CCCCCCCCCCCCCCN(CCCCCCCCCCCC(=O)OC)CCC1CCCN(C(=O)CN(CCCCCCCCC)CCN(CCCCCCCCC)CCCCCCCCC)C1 (stereo not drawn)
4 = CCCCCCCCCN(CCCCCCCCC)CCN(CCCCCCCCC)CC(=O)N1CCC(CCOC(=O)CN(CCCCCCCCC)CCCCCCCCC)C1 (stereo not drawn)
Request: List by increasing % Dose Remaining 24 hr. I would appreciate it if you listed the labels in the requested order.
Result: 1, 3, 2, 4
(1: 0.10%, 3: 3.75%, 2: 38.15%, 4: 71.45%)

---

- ASSAY_METHOD_TEXT: pKa of nanoparticle compositions
- Format: physicochemical
- RECORDED_CONDITIONS: Table 1b
MEASURED_METRIC: pKa

>>> recorded_result("CCCCCCCCCN(CCCCCCCCC)CCN(CCCCCCCCC)CC(=O)N1CCN(C(=O)CN(CCCCCCCCC)CCCCCCC(=O)OCC)CC1 [Compound 53]")
6.91
>>> recorded_result("CCCCCCCCCN(CCCC(=O)OCCCCC)CCC1CCCN(C(=O)CN(CCCCCCCCC)CCN(CCCCCCCCC)CCCCCCCCC)C1 (centres unmarked) [Compound 80]")
6.78
>>> recorded_result("CCCCCCCCCN(CCCCCCCCC)CCC1CCN(C(=O)CN(CCCCCCCCC)CCN(CCCCCCCCC)CCCCCCCCC)C1 (centres unmarked) [Compound 69]")
7.01
>>> recorded_result("CCCCCCCCCN(CCCOC(=O)CCCCC)CCC(=O)N1CCN(C(=O)CCN(CCCCCCCCC)CCN(CCCCCCCCC)CCCCCCCCC)CC1 [Compound 86]")
7.58
>>> recorded_result("CCCCCCCCCN(CCCCCCC(=O)OCC)CCC1CCN(C(=O)CN(CCCCCCCCC)CCN(CCCCCCCCC)CCCCCCCCC)CC1 [Compound 58]")
6.7
>>> recorded_result("CCCCCCCCCN(CCCCCCCCC)CCN(CCCCCCCCC)CC(=O)N1CCC(CN(CCCCCCCCC)CCCC(=O)OCCCCC)C1 (centres unmarked) [Compound 82]")
7.05
>>> recorded_result("CCCCCCCCCN(CCCC(=O)OCCCCC)CCCC1CCN(C(=O)CCN(CCCCCCCCC)CCN(CCCCCCCCC)CCCCCCCCC)CC1 [Compound 84]")
7.01
>>> recorded_result("CCCCCCCCCN(CCCCCCCCC)CCCC1CCN(C(=O)CCN(CCCCCCCCC)CCN(CCCCCCCCC)CCCCCCCCC)CC1 [Compound 85]")
6.74
>>> recorded_result("CCCCCCCCCN(CCCCCCCCC)CCN(CCCCCCCCC)CC(=O)N1CCN(C(=O)CN(CCCCCCCCC)CCCOC(=O)CCCCC)CC1 [Compound 56]")
6.94
>>> recorded_result("CCCCCCCCCN(CCCC(=O)OCCCCC)CCC1CCN(C(=O)CN(CCCCCCCCC)CCN(CCCCCCCCC)CCCCCCCCC)CC1 [Compound 83]")
6.72
>>> recorded_result("CCCCCCCCCN(CCCCCCCCC)CCN(CCCCCCCCC)CC(=O)N1CCC(CN(CCCCCCCCC)CCCCCCCCC)C1 (centres unmarked) [Compound 70]")
6.75

---

- ASSAY_METHOD_TEXT: Lipid clearance: % dose remaining, Tables 7c and 8b-8e (species not given)
- Assay type: in vivo
- RECORDED_CONDITIONS: Table 8c
MEASURED_METRIC: % Dose Remaining (liver, 24 h) (%)

Worked set:
>>> recorded_result("CCCCCCCCCCN(CCCCCCCCCC)CCCCC(=O)N1CCN(C(=O)CCCCN(CCCCCCCCCC)CCCCCCCCCC)CC1")
40.18
>>> recorded_result("CCCCCCCCCCNC(=O)CN(CCCCCCCCC)CCN(CCCCCCCCC)CCCCCCCCC")
63.12
>>> recorded_result("CCCCCCCCCN(CCCCCCCCC)CCCOCCCN(CCCCCCCCC)CCN(CCCCCCCCC)CCCCCCCCC")
113.64

I = CCCCCC=CCC=CCCCCCCCCC(CCCCCCCCC=CCC=CCCCCC)OC(=O)CCCN(C)C (stereo not shown) [MC3, reference compound]
II = CCCCCCCCCCCCCC(=O)OCCN(CCCCCCCCC)CCN(CCCCCCCCC)CCCCCCCCC
III = CCCCCCCCCN(CCCCCCCCC)CCN(CCCCCCCCC)CC(=O)N1CCN(C(=O)CN(CCCCCCCCC)CCCCCCCCC)CC1
Request: List by increasing % Dose Remaining (liver, 24 h). I would appreciate it if you listed the labels in the requested order.
Result: II, III, I

Measured values drawn from patent US12077501B2 for this set.
